Tested on: PRMT1 (protein arginine N-methyltransferase 1)
assay.method.text: PRMT1 binders on small-molecule microarrays, primary screen, biochemical, small-molecule microarray, 635 nm fluorescence (AID 1088);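 also: binding of Prmt1 protein to compounds spotted on small-molecule microarray slides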
experimental.setup: small-molecule microarray binding, higher = more signal
Overview of recorded composite z-score for various compounds
property.name: composite z-score

compound	property.name	endpoint.result
C#C[C@H](O[Si](C#Cc1ccc(Oc2ccccc2)cc1)(C(C)C)C(C)C)c1ccccc1	composite z-score	1.23
CC(C)C[C@@H]1NC(=O)[C@@H]2C[C@H](C(=O)O)[C@H](c3cccc(OCCO)c3)N2C1=O	composite z-score	0.64
C=CCN1C(=O)[C@@]2(Cc3ccccc31)N=C(c1ccc(OCCCO)cc1)O[C@H]2c1ccccc1	composite z-score	1.54
COc1cc2c(cc1OC)CN(C(=O)[C@@H]1[C@H]3C(=O)O[C@H](c4ccccc4)[C@H](c4ccccc4)N3[C@H](c3ccc(O)cc3)[C@@]13C(=O)Nc1ccccc13)CC2	composite z-score	1.35
COCCOC(=O)N1C(=O)[C@@]2(c3ccccc31)[C@H](c1ccccc1OCCO)N1[C@H](c3ccccc3)[C@H](c3ccccc3)OC(=O)[C@H]1[C@@H]2C(=O)N1CCN(c2ncccn2)CC1	composite z-score	1.54
CC1(C)[C@@H]2CC(C(O)C3C=CC4C(=O)N(Cc5ccccc5)C(=O)C4N3n3cnnc3)=C[C@H]1C2 (stereo partly specified)	composite z-score	1.29
C=C(CCCC)C(=O)CC[C@@H](OC(=O)c1ccccc1-c1ccccc1C(=O)O)c1ccc(OCCO)cc1	composite z-score	1.53
CC(C)[Si](C#Cc1ccc(Oc2ccccc2)cc1)(O[Si](C#Cc1ccc(Oc2ccccc2)cc1)(C(C)C)C(C)C)C(C)C	composite z-score	0.578
CCC[C@@H]1C[C@@]1(CCC)[C@@H](NC(=O)c1ccccc1)c1cccc(Cl)c1	composite z-score	0.596
C=C(COC)/C(=C/C[C@@H](OC(=O)c1ccncc1)c1ccc(CO)o1)c1cc(C(=O)OC)ccc1OC	composite z-score	1.53
CN1C(=O)C2C=CC(C(O)C#Cc3ccccc3)N(N3CCCCC3)C2C1=O (stereo unspecified)	composite z-score	0.436
O=C1C2C=CC(C(O)c3cccc4ccccc34)N(Nc3ccccc3F)C2C(=O)N1c1ccccc1 (stereo unspecified)	composite z-score	1.54
O=C1C[C@@](C(=O)NCCN2CCOCC2)(c2ccc([N+](=O)[O-])cc2)[C@@H](c2ccc(CO)cc2)N1CC12CC3CC(CC(C3)C1)C2	composite z-score	1.53
COc1cc(NN2C(C(O)c3ccco3)C=CC3C(=O)N(c4ccccc4)C(=O)C32)cc(OC)c1OC (stereo unspecified)	composite z-score	0.216
C=CCNC(=O)[C@@H]1[C@H]2C(=O)O[C@H](c3ccccc3)[C@H](c3ccccc3)N2[C@H](c2ccc(OCCO)cc2)[C@@]12C(=O)Nc1ccc(C#CCC(C(=O)OC)C(=O)OC)cc12	composite z-score	1.53
C=C[C@H](CO)NS(=O)(=O)c1ccc(Br)cc1	composite z-score	-0.0224

====

Test system: Noggin (protein binding on small-molecule microarray)
assay.method.text: Noggin binders on small-molecule microarray, primary screen, biochemical, 635/667 nm fluorescence (AID 1095);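 also: score merges 667 nm feature fluorescence with signal to noise over triplicate slides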
experimental.setup: 635 nm fluorescence, higher = more signal
property.name: composite z-score

compound	experimental.system	endpoint.result
CN(C)C(=O)[C@@]1(CCS(=O)(=O)c2ccccc2)COC(c2ccc(OCCCO)cc2)=N1	Noggin (protein binding on small-molecule microarray)	-0.252
CC(C)C(=C=CC[C@H](O)c1ccc(OCCO)cc1)CCO	Noggin (protein binding on small-molecule microarray)	1.37
Cc1ccc(S[C@]2(C(=O)NCCCN(C)C)CC(=O)N(Cc3cc(C(F)(F)F)cc(C(F)(F)F)c3)[C@@H]2c2ccc(CO)cc2)cc1	Noggin (protein binding on small-molecule microarray)	-0.768
C=CCNC(=O)[C@@H]1[C@H]2C(=O)O[C@H](c3ccccc3)[C@H](c3ccccc3)N2[C@H](c2ccccc2OCCO)[C@@]12C(=O)N(C(=O)OCCOC)c1ccccc12	Noggin (protein binding on small-molecule microarray)	1.71
CC1CC/C=C\[C@H]2OC34C=CCN(C(C)(C)C)C(=O)[C@H]3N(C(C)CO)C(=O)[C@@H]4C2C(=O)O1 (stereo not given in full)	Noggin (protein binding on small-molecule microarray)	0.0449
N#Cc1ccc(NN2C(C(O)C(c3ccccc3)c3ccccc3)C=CC3C(=O)N(c4ccccc4)C(=O)C32)cc1 (stereo not given)	Noggin (protein binding on small-molecule microarray)	0.297
CCCCC(CC)C(O)C1C=CC2C(=O)N(Cc3ccccc3)C(=O)C2N1n1cnnc1 (stereo not given)	Noggin (protein binding on small-molecule microarray)	-0.0141
COC(=O)[C@@]1(CCC(=O)OC(C)(C)C)N=C(c2ccc(OCCCO)cc2)O[C@H]1c1ccccc1N=[N+]=[N-]	Noggin (protein binding on small-molecule microarray)	0.714
O=C1C2C=CC(C(O)c3cccc4ccccc34)N(Nc3ccccc3F)C2C(=O)N1c1ccccc1 (stereo not given)	Noggin (protein binding on small-molecule microarray)	0.0926
C=CCOC(=O)[C@H]1[C@@H]2C(=O)O[C@@H](c3ccccc3)[C@@H](c3ccccc3)N2[C@@H](c2ccc(OCCOC(=O)[C@H]3C[C@H]4C(=O)N[C@@H](CCCCNC(C)=O)C(=O)N4[C@H]3c3ccc(O)cc3)cc2)[C@]12C(=O)Nc1ccc(I)cc12	Noggin (protein binding on small-molecule microarray)	1.5
COCCCNC(=O)[C@]1(CCC(=O)OC(C)(C)C)N=C(c2ccc(OCCCO)cc2)O[C@@H]1c1ccccc1CN=[N+]=[N-]	Noggin (protein binding on small-molecule microarray)	0.33
CCOC(=O)C[C@H]1[C@H](OC(=O)c2ccc(C(=O)c3ccccc3)cc2)[C@@H](NC(=O)c2ccc3ccccc3c2)c2cc(OCCCO)ccc2N1C(=O)Cc1ccc(OC)cc1	Noggin (protein binding on small-molecule microarray)	0.0199
O[C@@H](Cc1ccccc1)[C@H]1C2C=CCCC=C2CN1Cc1cccc(Cl)c1 (stereo not given in full)	Noggin (protein binding on small-molecule microarray)	0.728
CC(C)[Si](C#Cc1ccc(Oc2ccccc2)cc1)(O[Si](C#Cc1ccc(Oc2ccccc2)cc1)(C(C)C)C(C)C)C(C)C	Noggin (protein binding on small-molecule microarray)	0.267
CCCC[C@@H]1C[C@H]1[C@@H](NC(=O)C(C)(C)C)c1ccc(C(F)(F)F)cc1	Noggin (protein binding on small-molecule microarray)	-1.46
